# System: Pseudomonas fluorescens
# assay_details: Growth inhibition of Pseudomonas fluorescens NCIM 2036 at 3 ug/ml measured after 8 hrs relative to control
# Assay type: functional
# condition_context: NCIM 2036, 8 h, read-out: GI

structure_as_smiles	inhibition of growth at 3 µg/mL
Cc1ccc2nc(Cl)c(/C=C3\SC(=S)N(CC(=O)O)C3=O)cc2c1	-67.2%
Cc1ccc2cc(/C=C3\SC(=S)NC3=O)c(Cl)nc2c1	-8.82%
COc1ccc2nc(Cl)c(/C=C3\SC(=S)N(CCC(=O)O)C3=O)cc2c1	-4.49%
Cc1cccc2cc(/C=C3\SC(=S)NC3=O)c(Cl)nc12	16.9%
Cc1ccc2cc(/C=C3\SC(=S)N(CCC(=O)O)C3=O)c(Cl)nc2c1	5.88%
O=C(O)CCN1C(=O)/C(=C/c2cc3cc(Cl)ccc3nc2Cl)SC1=S	3.17%
COc1ccc2cc(/C=C3\SC(=S)NC3=O)c(Cl)nc2c1	0.629%
COc1ccc2cc(/C=C3\SC(=S)N(CC(=O)O)C3=O)c(Cl)nc2c1	4.92%
Cc1ccc2nc(Cl)c(/C=C3\SC(=S)N(CCC(=O)O)C3=O)cc2c1	5.35%
COc1ccc2cc(/C=C3\SC(=S)N(CCC(=O)O)C3=O)c(Cl)nc2c1	-62.2%

----------
# assay_details: Cytotoxicity against human A549 cells assessed as growth inhibition at 100 ug/ml measured after 48 hrs by MTT assay relative to control
# Type: toxicity, cell-based
# condition_context: read-out: GI
inhibition at 48 h, 100 ug/ml below 30% gives Criterion not met; inhibition at 48 h, 100 ug/ml at or above it gives Criterion met.

structure_as_smiles	class_name
COc1ccc2cc(/C=C3\SC(=S)NC3=O)c(Cl)nc2c1	Criterion not met
Cc1cccc2cc(/C=C3\SC(=S)N(CC(=O)O)C3=O)c(Cl)nc12	Criterion not met
O=C1NC(=S)S/C1=C\c1cc2cc(F)ccc2nc1Cl	Criterion met
Cc1cccc2cc(/C=C3\SC(=S)NC3=O)c(Cl)nc12	Criterion met
O=C1NC(=S)S/C1=C\c1cc2cc(Cl)ccc2nc1Cl	Criterion not met
O=C(O)CN1C(=O)/C(=C/c2cc3cc(F)ccc3nc2Cl)SC1=S	Criterion met
CCOc1ccc2nc(Cl)c(/C=C3\SC(=S)NC3=O)cc2c1	Criterion not met
COc1ccc2nc(Cl)c(/C=C3\SC(=S)NC3=O)cc2c1	Criterion not met

----------
# System: Mycobacterium tuberculosis
# assay_details: Growth inhibition of Mycobacterium bovis BCG ATCC 35743 at dormant stage measured after 12 days by nitrate reductase dye based two fold dilution method
# Format: functional
# condition_context: BCG str. ATCC 35743, 288 h
assay_readout: IC50

structure_as_smiles	target	assay_readout	observed
Cc1cccc2cc(/C=C3\SC(=S)N(CC(=O)O)C3=O)c(Cl)nc12	Mycobacterium tuberculosis	IC50	> 30 µg/mL
O=C(O)CCN1C(=O)/C(=C/c2cc3cc(F)ccc3nc2Cl)SC1=S	Mycobacterium tuberculosis	IC50	> 30 µg/mL
Cc1ccc2cc(/C=C3\SC(=S)N(CCC(=O)O)C3=O)c(Cl)nc2c1	Mycobacterium tuberculosis	IC50	> 30 µg/mL
O=C(O)CCN1C(=O)/C(=C/c2cc3cc(Cl)ccc3nc2Cl)SC1=S	Mycobacterium tuberculosis	IC50	> 30 µg/mL
O=C(O)CCN1C(=O)/C(=C/c2cc3ccccc3nc2Cl)SC1=S	Mycobacterium tuberculosis	IC50	> 30 µg/mL
O=C(O)CN1C(=O)/C(=C/c2cc3cc(F)ccc3nc2Cl)SC1=S	Mycobacterium tuberculosis	IC50	> 30 µg/mL
O=C(O)CN1C(=O)/C(=C/c2cc3cc(Cl)ccc3nc2Cl)SC1=S	Mycobacterium tuberculosis	IC50	> 30 µg/mL
Cc1ccc2cc(/C=C3\SC(=S)N(CC(=O)O)C3=O)c(Cl)nc2c1	Mycobacterium tuberculosis	IC50	> 30 µg/mL
O=C1NC(=S)S/C1=C\c1cc2ccccc2nc1Cl	Mycobacterium tuberculosis	IC50	> 30 µg/mL
COc1ccc2nc(Cl)c(/C=C3\SC(=S)N(CCC(=O)O)C3=O)cc2c1	Mycobacterium tuberculosis	IC50	> 30 µg/mL
CCOc1ccc2nc(Cl)c(/C=C3\SC(=S)N(CCC(=O)O)C3=O)cc2c1	Mycobacterium tuberculosis	IC50	> 30 µg/mL
CCOc1ccc2nc(Cl)c(/C=C3\SC(=S)NC3=O)cc2c1	Mycobacterium tuberculosis	IC50	1.1 µg/mL
CO[C@H]1/C=C/O[C@@]2(C)Oc3c(C)c(O)c4c(O)c(c(/C=N/N5CCN(C)CC5)c(O)c4c3C2=O)NC(=O)/C(C)=C\C=C\[C@H](C)[C@H](O)[C@@H](C)[C@@H](O)[C@@H](C)[C@H](OC(C)=O)[C@@H]1C	Mycobacterium tuberculosis	IC50	0.0043 µg/mL
Cc1ccc2cc(/C=C3\SC(=S)NC3=O)c(Cl)nc2c1	Mycobacterium tuberculosis	IC50	> 30 µg/mL
Cc1cccc2cc(/C=C3\SC(=S)N(CCC(=O)O)C3=O)c(Cl)nc12	Mycobacterium tuberculosis	IC50	> 30 µg/mL
CCOc1ccc2nc(Cl)c(/C=C3\SC(=S)N(CC(=O)O)C3=O)cc2c1	Mycobacterium tuberculosis	IC50	> 30 µg/mL
Cc1cccc2cc(/C=C3\SC(=S)NC3=O)c(Cl)nc12	Mycobacterium tuberculosis	IC50	5.1 µg/mL
O=C1NC(=S)S/C1=C\c1cc2cc(F)ccc2nc1Cl	Mycobacterium tuberculosis	IC50	3.9 µg/mL
Cc1ccc2nc(Cl)c(/C=C3\SC(=S)N(CCC(=O)O)C3=O)cc2c1	Mycobacterium tuberculosis	IC50	> 30 µg/mL
COc1ccc2cc(/C=C3\SC(=S)N(CCC(=O)O)C3=O)c(Cl)nc2c1	Mycobacterium tuberculosis	IC50	> 30 µg/mL
